Some molecules, each annotated with its measured pIC50.
- systemTested: cloned human NR1/NR2B ion channels (Homo sapiens (Human), UniProt Q05586+Q13224)
- Sequence (Q13224 27-1484, other chains not shown): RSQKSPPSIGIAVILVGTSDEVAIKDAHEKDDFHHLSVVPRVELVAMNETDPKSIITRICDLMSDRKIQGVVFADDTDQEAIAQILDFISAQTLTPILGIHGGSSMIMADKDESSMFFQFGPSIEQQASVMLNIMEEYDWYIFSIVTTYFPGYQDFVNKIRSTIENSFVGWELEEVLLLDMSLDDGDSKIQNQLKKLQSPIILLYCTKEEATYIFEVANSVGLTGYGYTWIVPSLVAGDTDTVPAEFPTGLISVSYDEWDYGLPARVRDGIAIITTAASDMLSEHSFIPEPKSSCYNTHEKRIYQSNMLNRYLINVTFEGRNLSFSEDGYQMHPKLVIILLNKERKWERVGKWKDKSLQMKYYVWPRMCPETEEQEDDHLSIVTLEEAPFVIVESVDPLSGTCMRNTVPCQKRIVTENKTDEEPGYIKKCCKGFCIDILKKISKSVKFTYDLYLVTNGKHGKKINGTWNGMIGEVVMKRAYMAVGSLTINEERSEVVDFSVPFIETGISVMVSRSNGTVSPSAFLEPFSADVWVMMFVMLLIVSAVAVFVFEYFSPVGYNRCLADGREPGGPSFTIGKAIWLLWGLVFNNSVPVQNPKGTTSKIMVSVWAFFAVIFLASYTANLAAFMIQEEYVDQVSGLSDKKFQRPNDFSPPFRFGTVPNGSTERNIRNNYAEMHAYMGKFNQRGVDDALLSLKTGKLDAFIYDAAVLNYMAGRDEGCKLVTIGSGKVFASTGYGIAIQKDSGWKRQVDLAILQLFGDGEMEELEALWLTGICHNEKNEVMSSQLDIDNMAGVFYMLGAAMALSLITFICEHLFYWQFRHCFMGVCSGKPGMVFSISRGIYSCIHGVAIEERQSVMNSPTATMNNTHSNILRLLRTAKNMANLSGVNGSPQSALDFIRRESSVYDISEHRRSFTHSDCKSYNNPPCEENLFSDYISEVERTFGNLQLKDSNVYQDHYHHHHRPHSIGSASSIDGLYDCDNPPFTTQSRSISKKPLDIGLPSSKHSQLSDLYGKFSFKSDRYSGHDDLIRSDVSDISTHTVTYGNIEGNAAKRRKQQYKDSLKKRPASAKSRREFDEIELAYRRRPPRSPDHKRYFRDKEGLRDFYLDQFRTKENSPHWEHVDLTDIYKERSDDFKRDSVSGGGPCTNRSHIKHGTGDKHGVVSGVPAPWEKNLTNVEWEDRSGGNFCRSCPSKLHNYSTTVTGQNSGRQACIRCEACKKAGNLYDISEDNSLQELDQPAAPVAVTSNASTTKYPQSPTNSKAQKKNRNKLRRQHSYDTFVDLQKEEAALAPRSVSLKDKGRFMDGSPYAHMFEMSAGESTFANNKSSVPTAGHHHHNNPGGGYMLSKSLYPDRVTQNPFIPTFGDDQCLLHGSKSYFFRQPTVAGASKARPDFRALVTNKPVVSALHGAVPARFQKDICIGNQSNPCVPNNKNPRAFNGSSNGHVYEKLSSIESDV
- testName: HNR2BC: effects of test articles on cloned human NR1/NR2B ion channels expressed in mammalian cells (FLIPR calcium flux)
- Type: cell-based
- measurementContext: cloned human NR1/NR2B ion channels, Table 5
Units for pIC50: none; it is -log10 of a concentration expressed in mol/L.

[[record]]
molecule = "O=C(Cn1ccc2ncc(-c3ccc(F)c(Cl)c3)cc21)N1CC(F)C1 [Example 467]"
number = 7.20

[[record]]
molecule = "CCc1cccc(-c2cnc3c(Cl)cn(CC(=O)N4CCC4)c3c2)c1 [Example 533]"
number = 7.30

[[record]]
molecule = "CCN(C)C(=O)Cn1cc(C)c2ncc(-c3ccc(F)c(C)c3F)cc21 [Example 625]"
number = 7.00

[[record]]
molecule = "Cc1cn(CC(=O)N2CCC2)c2cc(-c3cccc(C(F)(F)F)c3)cnc12 [Example 552]"
number = 7.10

[[record]]
molecule = "CN(C)C(=O)Cn1cc(Cl)c2ncc(-c3cc(Cl)cs3)cc21 [Example 414]"
number = 7.40

[[record]]
molecule = "Cc1cn(CC(=O)N2CC(F)C2)c2cc(-c3ccccc3)cnc12 [Example 578]"
number = 6.90


[ask] // lookup pIC50 for CCN(C)C(=O)Cn1ccc2ncc(-c3ccc(F)c(F)c3)cc21 [Example 461]
[reply] 7.50

[ask] Entry to check: CN(C)C(=O)Cn1cc(Cl)c2ncc(-c3ccc(C(F)(F)F)s3)cc21 [Example 603]
[reply] 7.20

Provenance of the data: patent US10377753B2
